Attribution: patent US20220324835A1

IC50 reference
Biological target: Cbl-b (Homo sapiens, UniProt Q13191)
Sequence (Q13191 36-427): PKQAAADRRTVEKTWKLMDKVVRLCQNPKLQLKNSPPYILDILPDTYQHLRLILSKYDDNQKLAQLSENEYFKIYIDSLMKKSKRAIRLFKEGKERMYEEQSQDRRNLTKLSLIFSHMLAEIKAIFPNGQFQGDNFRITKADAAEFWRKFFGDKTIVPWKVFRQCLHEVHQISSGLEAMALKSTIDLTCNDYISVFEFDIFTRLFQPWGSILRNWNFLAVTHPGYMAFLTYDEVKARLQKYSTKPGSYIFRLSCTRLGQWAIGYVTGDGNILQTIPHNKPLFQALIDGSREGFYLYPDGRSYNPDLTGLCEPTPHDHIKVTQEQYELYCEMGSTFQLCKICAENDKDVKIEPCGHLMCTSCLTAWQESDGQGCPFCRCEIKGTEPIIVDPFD
Experiment: Cbl-b activity assay (Cbl-b inhibition assay), TR-FRET of Cbl-b interaction with UbcH5B-Ub
Assay type: biochemical
Conditions: assay buffer with 100 mM NaCl, 60 nM Src kinase; read-out: Cbl-b activity IC50
quantity_name: IC50

>>> data_value("Cn1cnnc1CC1(c2cccc(N3Cc4c(cc(CN5CCCC5)nc4C4CC4)C3=O)c2)COC1")
"< 100 nM"
>>> data_value("C[C@H](Sc1nncn1C)c1cccc(NC(=O)c2cc3ccc(OCC(=O)O)cc3cn2)c1")
"1000 to 3000 nM"
>>> data_value("C[C@H](Sc1nnc[nH]1)c1cccc(NC(=O)c2cc3ccccc3cn2)c1")
"301 to 1000 nM"
>>> data_value("CC(=O)Nc1ccnc(C(=O)Nc2cccc([C@H](C)Sc3nncn3C)c2)c1")
"1000 to 3000 nM"
>>> data_value("Cn1cnnc1SC(CCO)c1cccc(NC(=O)c2cccc(C(F)(F)F)n2)c1 (centres unmarked)")
"1000 to 3000 nM"
>>> data_value("C[C@H](Cc1nncn1C)c1cccc(N2Cc3c(cc(C4CC4)cc3C(F)(F)F)C2=O)c1")
"< 100 nM"
>>> data_value("C[C@H](Sc1nncn1C)c1cccc(NC(=O)c2cc(C(F)(F)F)ccn2)c1")
"3000 to 10000 nM"
>>> data_value("Cc1ccc(C(=O)Nc2cccc([C@H](C)Sc3nncn3C)c2)nc1C")
"301 to 1000 nM"

----------
As shown below, each of these compounds has a reported fold induction at 1.11 µM value.
System: primary human total T-cells
Test: T-cell activation assessed by cell proliferation (Cell Trace Violet)
Assay type: cell-based
Details: CD3/CD28 stimulation, CD4 T-cells, 1.11 μM, read-out: % CP (cell proliferation) (CD4)
quantity_name: fold induction at 1.11 µM

>>> data_value("C[C@H](Cc1nncn1C)c1cccc(NC(=O)c2cccc(CCO)n2)c1 [Compound 202]")
"< 2"
>>> data_value("Cn1cnnc1[C@@H]1C[C@@H]1c1cccc(N2Cc3c(cccc3C(F)(F)F)C2=O)c1 [Compound 282]")
"< 2"
>>> data_value("C[C@H](Cc1nncn1C)c1cccc(N2Cc3c(cccc3C(F)(F)F)C2=O)c1 [Compound 255a]")
"< 2"
>>> data_value("Cn1cnnc1CC1(c2cccc(N3Cc4c(cc(CN5CC[C@H](C#N)C5)cc4C(F)(F)F)C3=O)c2)COC1 [Compound 422]")
"> 4"
>>> data_value("COC1CN(Cc2cc3c(c(C(F)(F)F)c2)CN(c2cccc([C@@](C)(F)C(F)(F)c4nncn4C)c2)C3=O)C1 [Compound 452]")
"> 4"
>>> data_value("C[C@H](Cc1nncn1C)c1cccc(N2Cc3c(cc(CN4CC(C)(O)C4)cc3C(F)(F)F)C2=O)c1 [Compound 397]")
"> 4"
>>> data_value("Cc1cc(C(=O)Nc2cccc([C@@H](C)Cc3nncn3C)c2)nc(C2CC2)n1 [Compound 325]")
"> 4"
>>> data_value("Cn1cnnc1CC1(c2cccc(N3Cc4c(cc(CN5CC(F)C5)cc4C(F)(F)F)C3=O)c2)COC1 [Compound 415]")
"> 4"
>>> data_value("C[C@H](Cc1nncn1C)c1cccc(N2Cc3c(cc(CN4CC[C@](C)(O)C4)cc3C(F)(F)F)C2=O)c1 [Compound 398]")
"> 4"

----------
Quick reference: pIC50 of the listed items.
Biological target: Cbl-b (Homo sapiens)
Experiment: Cbl-b activity assay (Cbl-b inhibition assay), TR-FRET of Cbl-b interaction with UbcH5B-Ub
Format: biochemical
Conditions: assay buffer with 100 mM NaCl, 60 nM Src kinase; read-out: Cbl-b activity IC50
pIC50: −log10 of the molar value.
quantity_name: pIC50

>>> data_value("Cn1cnnc1CC1(c2cccc(N3Cc4c(cc(CN5CCC(C)(F)C5)cc4C(F)(F)F)C3=O)c2)COC1 (stereo not drawn) [Compound 435]")
"> 7.00"
>>> data_value("C[C@H](CO)Nc1cc([C@H](C)Cc2nncn2C)cc(N2Cc3c(cccc3C(F)(F)F)C2=O)n1 [Compound 366]")
"6.52 to 7.00"
>>> data_value("C[C@H](Sc1nncn1C)c1cccc(NC(=O)c2cc(C(=O)N3C[C@H](O)C[C@@H]3C)ccn2)c1 [Compound 151]")
"6.00 to 6.52"
>>> data_value("COc1nc(C(=O)Nc2cc([C@H](C)Sc3nncn3C)ccn2)ccc1Cl [Compound 125]")
"5.52 to 6.00"
>>> data_value("Cn1cnnc1CC1(c2cccc(N3Cc4c(cc(CN5CCCc6c5cnn6C)cc4C(F)(F)F)C3=O)c2)COC1 [Example 651]")
"> 7.00"
>>> data_value("C[C@H](Cc1nncn1C)c1cccc(N2Cc3c(cc(CN4C[C@@H](O)[C@H](F)C4)cc3C(F)(F)F)C2=O)c1 [Compound 395]")
"> 7.00"
>>> data_value("Cn1cnnc1CC1(c2cccc(N3Cc4c(cc(CN5CCc6cccnc6C5)cc4C(F)(F)F)C3=O)c2)COC1 [Example 645]")
"> 7.00"
>>> data_value("C[C@H](Sc1nncn1C)c1ccnc(NC(=O)c2cc3c(C(F)(F)F)cccc3[nH]2)c1 [Compound 120]")
"6.52 to 7.00"
>>> data_value("COC1CCCN(Cc2cc3c(c(C(F)(F)F)c2)CN(c2cccc(C4(Cc5nncn5C)COC4)c2)C3=O)C1 (stereo not drawn) [Example 637]")
"> 7.00"
>>> data_value("C[C@H](Cc1nncn1C)c1cccc(N2Cc3c(cccc3C(F)(F)F)C2=O)c1 [Compound 255a]")
"> 7.00"
>>> data_value("C[C@H](Cc1nncn1C)c1cccc(NC(=O)c2cc(S(C)(=O)=O)cc(C3CC3)n2)c1 [Compound 198]")
"6.52 to 7.00"
>>> data_value("C[C@H](Cc1nncn1C)c1cccc(NC(=O)c2cc(C(=O)NCC(C)(C)O)ccn2)c1 [Compound 226]")
"5.00 to 5.52"
>>> data_value("C[C@H](Cc1n[nH]cc1C(F)(F)F)c1cccc(N2Cc3c(cc(C(=O)N4CC[C@H](O)C4)cc3C(F)(F)F)C2=O)c1 [Compound 465]")
"> 7.00"
>>> data_value("C[C@H](Sc1nncn1C)c1cccc(N2Cc3cc(Cl)ccc3C2=O)c1 [Compound 164]")
"6.00 to 6.52"
>>> data_value("Cn1cnnc1CC1(c2cccc(N3Cc4c(cc(C5=CCCOC5)cc4C(F)(F)F)C3=O)c2)COC1 [Example 614]")
"> 7.00"

----------
System: T-cell
Test: IL-2 secretion from T-cells co-stimulated with anti-CD3 and anti-CD28 antibody (Biological Example 2)
Format: cell-based, human
Details: Homo sapiens, T-cell, 0.3 μM compound; primary human total T-cells; baseline = anti-CD3/anti-CD28 stimulated cells without inhibitor; read-out: IL-2 secretion, Anti-CD3/Anti-CD28 stimulation, fold change over baseline
quantity_name: fold induction at 0.3 µM

>>> data_value("Cn1cnnc1CC1(c2cccc(N3Cc4c(cc(CN5CC[C@H](C#N)C5)cc4C(F)(F)F)C3=O)c2)COC1 [Compound 422]")
"5 to 7.5"
>>> data_value("C[C@@H](c1cc2c(c(C(F)(F)F)c1)CN(c1cccc(C3(Cc4nncn4C)COC3)c1)C2=O)N1CCC(F)(F)C1 [Compound 420]")
"2.51 to 5"
>>> data_value("Cn1cnnc1CC1(c2cccc(N3Cc4c(cc(CN5CC[C@H](F)C5)cc4C(F)(F)F)C3=O)c2)COC1 [Compound 410]")
"5 to 7.5"
>>> data_value("Cn1cnnc1CC1(c2cccc(NC(=O)c3cc(CN4C[C@@H]5[C@H](C4)C5(F)F)cc(C4CC4)n3)c2)COC1 [Compound 499]")
"> 7.5"
>>> data_value("C[C@@H]1CN(C)CCN1c1cc2c(c(C(F)(F)F)c1)CN(c1cccc(C3(Cc4nncn4C)COC3)c1)C2=O [Compound 390]")
"2.51 to 5"
>>> data_value("Cn1cnnc1C(F)(F)[C@](C)(F)c1cccc(N2Cc3c(cc(CN4CC(C(F)F)C4)cc3C(F)(F)F)C2=O)c1 [Compound 453]")
"5 to 7.5"
>>> data_value("C[C@H](c1cc2c(c(C(F)(F)F)c1)CN(c1cccc(C3(Cc4nncn4C)COC3)c1)C2=O)N1CCC(F)(F)C1 [Compound 419]")
"2.51 to 5"
>>> data_value("Cn1cnnc1C(F)(F)[C@](C)(F)c1cccc(N2Cc3c(cc(CN4CC(C#N)C4)cc3C(F)(F)F)C2=O)c1 [Compound 456]")
"1.01 to 2.5"
>>> data_value("Cn1cnnc1CC1(c2cccc(N3Cc4c(cc(OC5CC5)cc4C(F)(F)F)C3=O)c2)COC1 [Compound 513]")
"1.01 to 2.5"
>>> data_value("Cc1cc(C(=O)Nc2cccc([C@]3(Cc4nncn4C)CCOC3)c2)nc(C2CC2)n1 (single isomer, unassigned) [Compound 534a]")
"1.01 to 2.5"
>>> data_value("Cn1cnnc1C[C@]1(c2cccc(N3Cc4c(cc(CN5CCC6(CC6)C5)cc4C(F)(F)F)C3=O)c2)CCOC1 (single isomer, unassigned) [Compound 517b]")
"> 7.5"
>>> data_value("C[C@H](Cc1nncn1C)c1cccc(N2Cc3c(cc([C@H](C)N4CC(O)C4)cc3C(F)(F)F)C2=O)c1 [Compound 406]")
"5 to 7.5"
>>> data_value("Cn1cnnc1[C@@H]1C[C@@H]1c1cccc(N2Cc3c(ccnc3C(F)(F)F)C2=O)c1 [Compound 369]")
"1.01 to 2.5"
>>> data_value("C[C@H](c1cc2c(c(C(F)(F)F)c1)CN(c1cccc(C3(Cc4nncn4C)COC3)c1)C2=O)N1CCC2(CC1)CC2 [Example 558b]")
"> 7.5"
